Data origin: patent US10471046B2

Tested on: S. aureus
Test: Minimum inhibitory concentrations (MICs) for S. aureus of exemplary compounds (Table 2)
Type: cell-based
Conditions: Staphylococcus aureus, minimum inhibitory concentrations for S. aureus; read-out: MICs
I'd be grateful if you could share measured MIC for these entries.

Molecule	MIC
CC(=O)NC[C@H]1CN(c2ccc(-c3ccc(C[S+]([O-])c4ccncc4)cc3)c(F)c2)C(=O)O1 (stereo partly drawn)	2 µg/mL
CC(=O)NC[C@H]1CN(c2ccc(-c3ccc(CNCc4cnn[nH]4)cc3)c(F)c2)C(=O)O1	0.25 µg/mL
CC(=O)NC[C@H]1CN(c2ccc(-c3ccc(CN4CC[S+]([O-])CC4)cc3)c(F)c2)C(=O)O1	2 µg/mL
CC(=O)NC[C@H]1CN(c2ccc(-c3ccc(C(=N)NCc4ccncc4)cc3)c(F)c2)C(=O)O1	128 µg/mL
CSCCNc1ncnc2c1ncn2Cc1ccc(-c2ccc(N3C[C@H](CNC(C)=O)OC3=O)cc2F)cc1	2 µg/mL

For every listed record, write down its MIC.
1. CC(=O)NC[C@H]1CN(c2ccc(-c3ccc(CNCc4nn(C)cc4Br)cc3)c(F)c2)C(=O)O1
2. CC(=O)NC[C@H]1CN(c2ccc(-c3ccc([C@H](CO)N4CCC4)cc3)c(F)c2)C(=O)O1

Key:
1: 2 µg/mL; 2: 8 µg/mL

For every listed record, write down its MIC.
1. CC(=O)NC[C@H]1CN(c2ccc(-c3ccc(Cn4cccn4)nc3)c(F)c2)C(=O)O1
2. CC(=O)NC[C@H]1CN(c2ccc(-c3ccc(CNCc4ccncc4)cn3)c(F)c2)C(=O)O1

Key:
1 µg/mL
64 µg/mL

====

I'd be grateful if you could share measured MIC for these entries.
Test system: S. aureus
Assay: Minimum inhibitory concentrations (MICs) for S. aureus of exemplary compounds (Table 2)
Assay type: cell-based
Conditions: Staphylococcus aureus, minimum inhibitory concentrations for S. aureus; read-out: MICs
Numbers only, in µg/mL.

Look over these answered cases.
Structure As Smiles	Uom	MIC
CC(=O)NC[C@H]1CN(c2ccc(-c3ccc(CNN4CCN(C)CC4)cc3)c(F)c2)C(=O)O1	µg/mL	1
CC(=O)NC[C@H]1CN(c2ccc(-c3ccc(CSc4nnc(N)[nH]4)cc3)c(F)c2)C(=O)O1	µg/mL	0.25
CC(=O)NC[C@H]1CN(c2ccc(-c3ccc(CNCCCSc4cnn[nH]4)cc3)c(F)c2)C(=O)O1	µg/mL	0.25

For every listed record, write down its MIC.
1. CC(=O)NC[C@H]1CN(c2ccc(-c3ccc(CNC(=O)C4(NC(=O)OC(C)(C)C)CC4)cc3)c(F)c2)C(=O)O1
2. CC(=O)NC[C@H]1CN(c2ccc(-c3ccc(COCc4ccccn4)cc3)c(F)c2)C(=O)O1

Key:
16
1

// `CC(=O)NC[C@H]1CN(c2ccc(-c3ccc(/C=N/N4CCOCC4)cc3)c(F)c2)C(=O)O1` : MIC value = 0.25

====

Test system: S. aureus
Test: Minimum inhibitory concentrations (MICs) for S. aureus of exemplary compounds (Table 2)
Format: cell-based
Settings: Staphylococcus aureus, minimum inhibitory concentrations for S. aureus; read-out: MICs
Rule: MIC below 2 µg/mL gives 1.0. Equal to or above 2 µg/mL gives 0.0.

Before answering, review these 6 worked examples.
Compound	Group
CC(=O)NC[C@H]1CN(c2ccc(-c3ccc(CNCc4cccs4)cc3)c(F)c2)C(=O)O1	1.0
CC(=O)NC[C@H]1CN(c2ccc(-c3ccc(CNCc4ccccn4)c(F)c3F)c(F)c2)C(=O)O1	0.0
CC(=O)NC[C@H]1CN(c2ccc(-c3ccc(C(=O)NCc4nccs4)nc3)c(F)c2)C(=O)O1	1.0
CC(=O)NC[C@H]1CN(c2ccc(-c3ccc(CS(=O)(=O)Cc4ccncc4)cc3)c(F)c2)C(=O)O1	1.0
CC(=O)NC[C@H]1CC(c2ccc(-c3ccc(CNC(=O)c4ccccc4C(=O)O)cc3)cc2)=NO1	0.0
CC(=O)NC[C@H]1CN(c2ccc(-c3ccc(CN4CCCO4)cc3)c(F)c2)C(=O)O1	1.0

Exercise: Hi there! Is MIC for CC(=O)NC[C@H]1CN(c2ccc(-c3ccc(C(N)c4nnn(C)n4)cc3)c(F)c2)C(=O)O1 (mixture of isomers) below 2 µg/mL, do you know?
Key: 0.0

Exercise: Hi there! Is MIC for `CC(=O)NC[C@H]1CC(c2ccc(-c3ccc(CNC(=O)c4ccccc4C(=O)O)cc3)nc2)=NO1` below 2 µg/mL, do you know?
Key: 0.0

Exercise: Hi there! Is MIC for `CC(=O)NC[C@H]1CN(c2ccc(-c3ccc(Cn4cnc(N)n4)cc3)c(F)c2)C(=O)O1` below 2 µg/mL, do you know?
Key: 1.0

Exercise: Hi there! Is MIC for `CC(=O)NC[C@H]1CN(c2ccc(-c3ccc(CNn4cnnc4)cc3)c(F)c2)C(=O)O1` below 2 µg/mL, do you know?
Key: 1.0

Exercise: Hi there! Is MIC for `CC(=O)NC[C@H]1CN(c2ccc(-c3ccc(CNCCc4c[nH]cn4)cc3)c(F)c2)C(=O)O1` below 2 µg/mL, do you know?
Key: 0.0

Exercise: Hi there! Is MIC for `CC(=O)NC[C@H]1CN(c2ccc(-c3ccc(CNC(=O)Nc4cccc(F)c4)cc3)c(F)c2)C(=O)O1` below 2 µg/mL, do you know?
Key: 0.0
